# Test system: MDR1 (P-gp)
# protocol.notes: in vitro
# measurement.context: dog, MDCK-MDR1, MDR1-MDCKII A to B % Recovery
measurement.type: recovery (%)
Supply the numeric figure in %, leaving out any unit text.

Study these solved cases before continuing.
compound	recovery, %
[2H]c1nnn(-c2ccc(Cl)c(C(F)(F)F)c2Cl)c1[2H] [d2-8l]	102
FC(F)(F)c1c(Cl)ccc(-n2ccnn2)c1Cl	85.1
OCc1cn(-c2ccc(Cl)c(Cl)c2)nn1	80.7
FC(F)(F)c1c(Cl)cnc(-n2ccnn2)c1Cl	5.93

Please find the next compound below.
# get_value(readout='recovery', item= OCc1cn(-c2ccc(Cl)c(C(F)(F)F)c2Cl)nn1 )
94.1

----------
# target.of.assay: CYP3A4 (Homo sapiens, UniProt P08684)
# Sequence (P08684 whole entry): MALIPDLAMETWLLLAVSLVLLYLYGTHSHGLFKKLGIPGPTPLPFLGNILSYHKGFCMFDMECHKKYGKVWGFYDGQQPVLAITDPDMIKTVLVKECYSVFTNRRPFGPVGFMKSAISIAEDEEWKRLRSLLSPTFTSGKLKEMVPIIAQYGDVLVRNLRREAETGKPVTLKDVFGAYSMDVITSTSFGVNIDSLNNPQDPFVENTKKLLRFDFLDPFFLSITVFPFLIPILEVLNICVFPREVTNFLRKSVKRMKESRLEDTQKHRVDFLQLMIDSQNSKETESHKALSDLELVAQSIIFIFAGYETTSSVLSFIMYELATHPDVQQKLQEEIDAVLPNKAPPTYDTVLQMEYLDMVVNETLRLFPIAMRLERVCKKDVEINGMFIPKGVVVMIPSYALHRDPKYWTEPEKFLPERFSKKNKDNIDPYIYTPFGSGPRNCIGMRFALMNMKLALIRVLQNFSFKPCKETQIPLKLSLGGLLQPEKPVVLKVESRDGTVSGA
# protocol.notes: CYP450 inhibition in HLM
# measurement.context: read-out: IC50 CYP3A4/Midazolam; (-)NADPH pre-incubation
pIC50: −log10 of the molar value.
measurement.type: pIC50

Under CYP3A4 (Homo sapiens, UniProt P08684): pIC50 value of FC(F)(F)c1c(Cl)ccc(-n2ccnn2)c1Cl ?
< 4.30

----------
# target.of.assay: CYP2C19 (Homo sapiens, UniProt P33261)
# Sequence (P33261 whole entry): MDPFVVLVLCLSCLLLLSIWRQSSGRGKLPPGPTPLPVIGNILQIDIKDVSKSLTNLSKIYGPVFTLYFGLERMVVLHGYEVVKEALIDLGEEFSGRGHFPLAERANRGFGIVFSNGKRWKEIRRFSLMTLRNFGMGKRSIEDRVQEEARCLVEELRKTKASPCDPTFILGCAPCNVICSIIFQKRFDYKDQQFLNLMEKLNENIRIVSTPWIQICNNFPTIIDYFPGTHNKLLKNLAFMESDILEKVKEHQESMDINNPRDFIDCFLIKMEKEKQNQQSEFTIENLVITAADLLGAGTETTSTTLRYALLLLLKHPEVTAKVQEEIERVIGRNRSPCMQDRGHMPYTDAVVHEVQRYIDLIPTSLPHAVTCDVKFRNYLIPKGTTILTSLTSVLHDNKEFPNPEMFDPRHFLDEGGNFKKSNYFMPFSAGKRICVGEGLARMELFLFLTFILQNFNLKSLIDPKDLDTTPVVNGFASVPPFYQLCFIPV
# protocol.notes: CYP450 inhibition in HLM
# measurement.context: read-out: CYP inhibition IC50, 2C19; HLM
measurement.type: pIC50
To interpret pIC50, take it as minus log10 of a concentration measured in moles per litre.

Return reported pIC50; argument: FC(F)(F)c1c(Cl)ccc(-n2ccnn2)c1Cl
5.09

----------
# target.of.assay: CYP3A4 (Homo sapiens, UniProt P08684)
# protocol.notes: CYP450 inhibition in HLM
# measurement.context: read-out: CYP inhibition IC50, 3A4(mid.); HLM; midazolam
measurement.type: IC50

Param item = FC(F)(F)c1c(Cl)ccc(-n2ccnn2)c1Cl ; retrieve measured IC50.
> 50 µM

----------
# Test system: P-gp (MDR1)
# protocol.notes: in vitro
# measurement.context: dog, MDCK-MDR1, MDCK-MDR1 BA Papp, basal to apical
Listing of recorded Papp by entry.
The answer is to be given in ×10⁻⁶ cm/s; state only the numeric part.

compound	target.of.assay	Papp (×10⁻⁶ cm/s)
OCc1cn(-c2ccc(Cl)c(Cl)c2)nn1	P-gp (MDR1)	58.3
FC(F)(F)c1c(Cl)cnc(-n2ccnn2)c1Cl	P-gp (MDR1)	4.88
OCc1cn(-c2ccc(Cl)c(C(F)(F)F)c2Cl)nn1	P-gp (MDR1)	27.8
FC(F)(F)c1c(Cl)ccc(-n2ccnn2)c1Cl	P-gp (MDR1)	39.2

Please examine the following record next.
Recorded Papp of [2H]c1nnn(-c2ccc(Cl)c(C(F)(F)F)c2Cl)c1[2H] [d2-8l] , please.
35.4

----------
Listed here: items and their measured recovery.
# Tested on: MDR1 (P-gp)
# protocol.notes: in vitro
# measurement.context: dog, MDCK-MDR1, MDR1-MDCKII B to A % Recovery
Dear colleague, please return just the value in %, with no unit written.

compound	numeric.value
OCc1cn(-c2ccc(Cl)c(C(F)(F)F)c2Cl)nn1	97.5
[2H]c1nnn(-c2ccc(Cl)c(C(F)(F)F)c2Cl)c1[2H] [d2-8l]	111
OCc1cn(-c2ccc(Cl)c(Cl)c2)nn1	87.2
FC(F)(F)c1c(Cl)cnc(-n2ccnn2)c1Cl	65.2

Next:
Which value of recovery has been reported for FC(F)(F)c1c(Cl)ccc(-n2ccnn2)c1Cl in the records?
90.5
